B1: Pistol ribozyme (parent)
chain: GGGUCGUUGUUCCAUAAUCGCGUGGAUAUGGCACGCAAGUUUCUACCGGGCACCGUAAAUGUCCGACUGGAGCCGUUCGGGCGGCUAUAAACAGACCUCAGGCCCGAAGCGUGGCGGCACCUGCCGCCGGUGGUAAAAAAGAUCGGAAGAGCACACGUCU

- Variants of: B1
- Experiment Summary: aptazyme ON/OFF ratio, guanine; higher = stronger switching; co-transcriptional cleavage with and without guanine
Quantity: aptazyme ON/OFF ratio
Respond using a number only.

For this variant ( U7C U8C G9C U10C U11G C12U ), measured aptazyme ON/OFF ratio is 1.15

Entry under test: U7A U8C U10A C13U . Its aptazyme ON/OFF ratio was 1.05

Notebook: U7A U8C G9U U11G C12A , aptazyme ON/OFF ratio read as 1.09

Entry U7C U8G G9U U10A U11A C13G — recorded aptazyme ON/OFF ratio = 1.09

Per the record, U7C U8A U10A C12G has aptazyme ON/OFF ratio of 1.19

What the record says about U7C U8G G9A U10A U11C C12U C13A : aptazyme ON/OFF ratio is 1.14

Quick note, aptazyme ON/OFF ratio for U7A U8A U11G C13A landed at 1.16

Consider U7A U8G G9U U11C C13U . Its measured aptazyme ON/OFF ratio is 1.38

Item: U7A U8G U10G U11G C12A C13U | aptazyme ON/OFF ratio: 1.41

response.value for U7C G9U U10G U11A (field: aptazyme ON/OFF ratio) = 1.03

Data point: U7C G9U U10A C13A ; aptazyme ON/OFF ratio = 1.18

Form: variant = U8A G9C U10G U11A C13U ; aptazyme ON/OFF ratio = 1.02

So for U8G G9C U10G U11C C12G C13U , the logged aptazyme ON/OFF ratio turned out to be 1.08

Just so you know, measured aptazyme ON/OFF ratio for U8G G9C U10G U11C C12A C13U came out at 1.03

// aptazyme ON/OFF ratio value for U8C U10G : 1.76

Just so you know, measured aptazyme ON/OFF ratio for U7C U8A U10C U11C C12U C13A came out at 1.06

Quick note, aptazyme ON/OFF ratio for U7A U8G U10A U11G C12G landed at 1.32
